- System: Vero E6 infected with SARS-CoV-2
- method_notes: inhibition of SARS-CoV-2 cytopathic effect; higher = more antiviral protection, active = above 15
- condition_set: 1 nM; 48 h
Can you tell me inhibition of SARS-CoV-2 cytopathic effect for the items I'm about to list?
Numbers only, in %.

Use the examples below as a reference point.
> print(dat)
                                   compound  data.value
1                     Cc1nc(C)c(Cl)c(O)c1Cl       -2.81
2  CCCN(CCC)[C@H]1CCc2cccc(O)c2C1 [8-hydroxy-DPAT]       -1.75

Could you tell me inhibition of SARS-CoV-2 cytopathic effect for each of these compounds? They are listed below.
1. O=c1oc(-c2ccc(C(F)(F)F)cc2)nn1Cc1cc(Cl)ccc1O
2. COC(=O)[C@H](CC(C)C)NC(=O)[C@@H](N)CC(C)C

1: -2.43; 2: -2.04

---

Can you tell me inhibition of SARS-CoV-2 cytopathic effect for the items I'm about to list?
- System: Vero E6 infected with SARS-CoV-2
- method_notes: inhibition of SARS-CoV-2 cytopathic effect; higher = more antiviral protection, active = above 15
- condition_set: 8.33 nM; 48 h
Numbers only, in %.

molecule	system_name	data_value
O=C1NC(=O)/C(=C/c2ccc(-c3ccc(F)cc3O)o2)S1	Vero E6 infected with SARS-CoV-2	-0.98

Could you tell me inhibition of SARS-CoV-2 cytopathic effect for each of these molecules? They are listed below.
1. Nc1nc(=O)n([C@@H]2CS[C@H](CO)O2)cc1F [emtricitabine]
2. Cc1cc(Nc2cc(N3CCN(C)CC3)nc(Sc3ccc(NC(=O)C4CC4)cc3)n2)n[nH]1 [tozasertib]
3. CC(=O)N[C@@H](CC(=O)O)C(=O)N[C@@H](CCC(=O)O)C(=O)O [spaglumic-acid]
4. Cc1ccc(NC(=O)C(C)C)cc1C1CCN(Cc2ccc(Oc3ccc(F)c(F)c3)cc2)CC1
5. CS(=O)(=O)N1CCN(Cc2cc3nc(-c4cccc5[nH]ncc45)nc(N4CCOCC4)c3s2)CC1
6. CCc1cc(Cl)c(OC)c(C(=O)NC[C@@H]2CCCN2CC)c1O [eticlopride]

[-2.03, -0.86, -1.97, -1.41, -2.51, -0.67]

Could you tell me inhibition of SARS-CoV-2 cytopathic effect for each of these molecules? They are listed below.
1. COc1ccc(-c2nc(-c3ccc(-c4cccc(Cl)c4)o3)[nH]c2-c2ccc(OC)cc2)cc1 [neurodazine]
2. OCc1cc(C(O)CNCCCCCCOCCCCc2ccccc2)ccc1O (centres undefined) [salmeterol]

1: -0.31; 2: 2.26

Could you tell me inhibition of SARS-CoV-2 cytopathic effect for each of these molecules? They are listed below.
1. CC(=O)SC[C@@H](C)C(=O)N1CCC[C@H]1C(=O)N[C@@H](Cc1ccccc1)C(=O)O [alacepril]
2. CC(C)(Sc1ccncc1-c1ccc(C#N)c2ccccc12)C(=O)O [verinurad]
3. CCOC(=O)c1cnc2c(cnn2CC)c1NN=C(C)C [etazolate]
4. CCCCOc1cc(C(=O)OCCN(CC)CC)ccc1N [oxybuprocaine]
5. Cn1ccc2cc(NC(=O)Nc3cccnc3)ccc21
6. COc1ccc([C@@H]2CC(=O)c3c(O)cc(O[C@@H]4O[C@H](CO)[C@@H](O)[C@H](O)[C@H]4O[C@@H]4O[C@@H](C)[C@H](O)[C@@H](O)[C@H]4O)cc3O2)cc1O [neohesperidin]
7. CCOC(=O)N1c2ccc(C(F)(F)F)cc2[C@@H](N(Cc2cc(C(F)(F)F)cc(C(F)(F)F)c2)C(=O)OC)C[C@H]1CC
8. COc1ccnc2[nH]cc(C(=O)C(=O)N3CCN(C(=O)c4ccccc4)C[C@H]3C)c12

1: 0.59; 2: 1.54; 3: 4.04; 4: 0.93; 5: -2.46; 6: 0.62; 7: 0.5; 8: -1.88

Could you tell me inhibition of SARS-CoV-2 cytopathic effect for each of these molecules? They are listed below.
1. CN(CC[C@@H](Oc1ccc(-c2ccccc2)cc1)c1ccc(F)cc1)CC(=O)O
2. Cn1c([N+](=O)[O-])cnc1COC(N)=O [ronidazole]

1. 1.55
2. 0.97
